B1: Pistol ribozyme (parent)
chain: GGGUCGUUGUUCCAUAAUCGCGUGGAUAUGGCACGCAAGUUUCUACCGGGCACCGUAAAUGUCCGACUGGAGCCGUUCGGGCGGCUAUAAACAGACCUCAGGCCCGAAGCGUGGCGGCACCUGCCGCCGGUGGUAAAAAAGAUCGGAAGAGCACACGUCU

Variants of: B1
Assay: aptazyme ON/OFF ratio, guanine; higher = stronger switching; co-transcriptional cleavage with and without guanine
outcomeMeasure: aptazyme ON/OFF ratio
# answer = number (no unit)

Take a look at these entries with their results.
INSERT INTO results (variantcode, reportedvalue) VALUES
  ('U7C U8C G9C U10G U11G C12U C13A', 1.08),
  ('U7A G9A U10G U11C C12U', 1.08),
  ('U8C G9C U10C U11A C12A', 1.04),
  ('U7G U8A G9C C12A', 1.02);

Looking up U8C U11G C12U , I see its aptazyme ON/OFF ratio listed as 1.26

Data credit: the RNAGym collection of RNA variant scans (doi:10.1021/acssynbio.7b00057)
